- tested.system: GLP-1 receptor (UniProt P43220 24-463, limits assumed)
- test.description: cell-based or functional assay
Where no end group is shown, it is not given here. [ ]: non-standard residue; d: D form. The star is where a group is joined. C18 fatty acyl = 18 carbon fatty acyl group covalently attached to Lys; PEG 40 kDa = PEG (40 kDa) covalently attached to Cys; Palmitoyl = CCCCCCCCCCCCCCCC(=O)*; Myristoyl = CCCCCCCCCCCCCC(=O)*; Aib = CC(C)(N)C(=O)O
Lab note: compare EC50 with 0.09 nM, writing 1.0 if less and 0.0 if equal or more.

{"binder": "Y[Aib]EGTFTSDYSIYLDKQAA[Aib]EFVCWLLAGGPSSGAPPPSK(C18 fatty acyl)-NH2 [mt-307]", "assigned.class": 1.0}
{"binder": "Y[Aib]EGTFTSDYSIYLDKQAA[Aib]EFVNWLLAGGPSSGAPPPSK(Myristoyl)-NH2 [mt-260]", "assigned.class": 1.0}
{"binder": "Y[Aib]EGTFTSDYSIYLDKQAA[Aib]EFVC(PEG 40 kDa)WLLAGGPSSGAPPPSK(Palmitoyl)-NH2 [mt-298]", "assigned.class": 1.0}
{"binder": "Y[Aib]EGTFTSDYSIYLDKQAA[Aib]EFVC(PEG 40 kDa)WLLAGGPSSGAPPPSK-NH2 (also: PEG linkage structure not given here) [mt-331]", "assigned.class": 0.0}
